Just for reference, ChEMBL document CHEMBL2218924 is where these values come from.

Target: Tyrosine-protein kinase ITK/TSK (Homo sapiens) (UniProt Q08881)
Sequence (Q08881 whole entry): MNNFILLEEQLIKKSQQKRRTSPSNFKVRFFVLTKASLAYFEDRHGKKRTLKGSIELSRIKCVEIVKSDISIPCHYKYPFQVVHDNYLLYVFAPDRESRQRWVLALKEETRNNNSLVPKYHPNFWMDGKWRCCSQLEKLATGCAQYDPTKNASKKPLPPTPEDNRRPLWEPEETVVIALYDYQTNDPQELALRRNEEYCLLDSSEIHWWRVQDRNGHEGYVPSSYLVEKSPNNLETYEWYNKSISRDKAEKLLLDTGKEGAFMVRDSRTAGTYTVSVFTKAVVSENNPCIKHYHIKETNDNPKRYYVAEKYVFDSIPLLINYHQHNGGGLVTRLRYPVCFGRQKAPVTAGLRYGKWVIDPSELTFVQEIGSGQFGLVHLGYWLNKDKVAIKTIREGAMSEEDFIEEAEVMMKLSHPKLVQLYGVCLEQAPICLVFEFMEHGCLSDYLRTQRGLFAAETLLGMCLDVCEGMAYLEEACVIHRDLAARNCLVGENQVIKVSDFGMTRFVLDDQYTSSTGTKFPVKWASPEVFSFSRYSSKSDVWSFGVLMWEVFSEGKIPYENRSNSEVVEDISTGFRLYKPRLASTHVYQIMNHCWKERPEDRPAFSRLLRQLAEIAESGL
Details: at 1 µM
test_readout: residual activity (%)
Give bare numbers, in %.

Look up residual activity for the entries below, preserving their order.
1. CO[C@@H]1[C@H](N(C)C(=O)c2ccccc2)C[C@H]2O[C@]1(C)n1c3ccccc3c3c4c(c5c6ccccc6n2c5c31)C(=O)NC4
2. Cc1cc(Nc2nc(-c3ccccc3)nc3ccccc23)n[nH]1
3. CCN(CC)C(=O)c1ccc(Nc2nc(OCC3CCCCC3)c3nc[nH]c3n2)cc1

1. 56
2. 5
3. 32

###

Please respond with reported residual activity for every item in the list.
Biological target: Maternal embryonic leucine zipper kinase (Homo sapiens) (UniProt Q14680)
Sequence (Q14680 whole entry, looked up): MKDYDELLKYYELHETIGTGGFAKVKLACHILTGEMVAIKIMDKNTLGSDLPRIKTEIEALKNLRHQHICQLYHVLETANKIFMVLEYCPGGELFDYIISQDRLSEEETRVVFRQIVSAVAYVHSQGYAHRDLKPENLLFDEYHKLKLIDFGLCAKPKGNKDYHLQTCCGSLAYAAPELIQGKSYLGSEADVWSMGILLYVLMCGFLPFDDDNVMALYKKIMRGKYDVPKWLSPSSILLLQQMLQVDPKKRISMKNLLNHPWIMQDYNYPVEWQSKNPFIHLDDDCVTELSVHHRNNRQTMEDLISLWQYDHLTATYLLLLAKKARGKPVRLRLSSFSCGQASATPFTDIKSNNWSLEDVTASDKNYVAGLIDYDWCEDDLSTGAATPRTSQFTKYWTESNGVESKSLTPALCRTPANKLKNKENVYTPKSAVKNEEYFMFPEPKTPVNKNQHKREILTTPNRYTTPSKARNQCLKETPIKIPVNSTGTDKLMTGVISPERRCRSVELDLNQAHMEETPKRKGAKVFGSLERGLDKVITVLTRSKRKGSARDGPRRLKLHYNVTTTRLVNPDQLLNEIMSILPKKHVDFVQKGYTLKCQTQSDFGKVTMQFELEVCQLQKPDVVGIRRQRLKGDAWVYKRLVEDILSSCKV
Conditions: at 1 µM
Answers are plain numbers, in %.

record_smiles	residual activity [%]
Cc1nc2cc3nc(-c4cccs4)cnc3cc2n1C	89
c1ccc2c(-c3ccncc3)c[nH]c2c1	91
O=C1NC(=O)c2cc(Nc3ccc(F)cc3)c(Nc3ccc(F)cc3)cc21	89

I would be grateful if you could provide residual activity for each of the following entries.
1. NC(=O)c1ccc2[nH]c(-c3ccc(Oc4ccc(Cl)cc4)cc3)nc2c1
2. COc1ccc(S(=O)(=O)N(CCO)c2ccccc2CN(C)C/C=C/c2ccc(Cl)cc2)cc1
3. CO[C@H]1C[C@@H]2CC[C@@H](C)[C@@](O)(O2)C(=O)C(=O)N2CCCC[C@H]2C(=O)O[C@H]([C@H](C)C[C@@H]2CC[C@@H](O)[C@H](OC)C2)CC(=O)[C@H](C)/C=C(\C)[C@@H](O)[C@@H](OC)C(=O)[C@H](C)C[C@H](C)/C=C/C=C/C=C/1C
4. Oc1ccc(-c2nc(-c3ccc(F)cc3)c(-c3ccncc3)[nH]2)cc1
5. Nc1n[nH]c2nnc(-c3c(-c4ccccc4)nn4ccccc34)cc12

91
90
88
92
91

Give residual activity for all molecules that follow.
1. CC(=O)c1ccc(N2CCOCC2)cc1O
2. O=C(Nc1cccc(Nc2cc(Nc3cccc(C(F)(F)F)c3)ncn2)c1)C1CC1
3. O=C(O)c1ccc2c3c1cccc3c(=O)n1c3ccccc3nc21

90
89
91
